tgt: recombinant IL4I1 (Homo sapiens)
Construct: purchased R&D Systems 5684-AO-020
measurement-description: IL4I1 Enzymatic Assay (Amplex Red/HRP coupled H2O2 detection)
Type: biochemical
test-conditions: 240 min; four-hour pre-incubation with compound; 1 nM IL4I1, 1 mM each Phe/Tyr/Trp; ten-point titration; fluorescence readout; read-out: Potency EC50 (nM) (240 min)
Simple rule here: EC50 less than 400 nM is Y, otherwise N.

Here's an entry: CC[C@@H](NC(C)=O)c1ccc(Cn2c(=O)[nH]c3ccccc32)cc1 . Is its EC50 below 400 nM?
Y

Hi there! Is EC50 for CC(=O)Nc1ccc(Cn2c(=O)[nH]c3ccccc32)cc1F below 400 nM, do you know?
Y

Confirm or reject: EC50 of O=c1[nH]c2sccc2n1Cc1ccccc1 lies strictly below 400 nM
N

Bench note: check whether O=C(Cc1ccc(Cn2c(=O)[nH]c3ccccc32)cc1)NC1CCC(F)C1 (stereo not shown) shows EC50 below 400 nM
Y

I'd appreciate it if you could check whether CCc1ccc2c(c1)[nH]c(=O)n2Cc1ccccc1 has EC50 smaller than 400 nM.
N

In plain terms, does O=c1[nH]c2cccc(F)c2n1Cc1ccccc1 come in under 400 nM for EC50?
N

Dear reviewer, please state whether O=C(c1cccc(Cn2c(=O)[nH]c3ccccc32)c1)N1CCC1 has EC50 strictly beneath 400 nM.
Y

Below 400 nM on EC50? Entry O=C1CCCN1Cc1sc(Cn2c(=O)[nH]c3ccccc32)cc1Cl
Y

Lab note: confirm whether the reported EC50 for this compound is below 400 nM, equality not counting. compound: CC(=O)NC(C)(C)c1ccc(Cn2c(=O)[nH]c3ccccc32)cc1
Y

###

tgt: recombinant IL4I1 (Homo sapiens, UniProt Q96RQ9)
Construct: purchased R&D Systems 5684-AO-020
Sequence (Q96RQ9 22-567): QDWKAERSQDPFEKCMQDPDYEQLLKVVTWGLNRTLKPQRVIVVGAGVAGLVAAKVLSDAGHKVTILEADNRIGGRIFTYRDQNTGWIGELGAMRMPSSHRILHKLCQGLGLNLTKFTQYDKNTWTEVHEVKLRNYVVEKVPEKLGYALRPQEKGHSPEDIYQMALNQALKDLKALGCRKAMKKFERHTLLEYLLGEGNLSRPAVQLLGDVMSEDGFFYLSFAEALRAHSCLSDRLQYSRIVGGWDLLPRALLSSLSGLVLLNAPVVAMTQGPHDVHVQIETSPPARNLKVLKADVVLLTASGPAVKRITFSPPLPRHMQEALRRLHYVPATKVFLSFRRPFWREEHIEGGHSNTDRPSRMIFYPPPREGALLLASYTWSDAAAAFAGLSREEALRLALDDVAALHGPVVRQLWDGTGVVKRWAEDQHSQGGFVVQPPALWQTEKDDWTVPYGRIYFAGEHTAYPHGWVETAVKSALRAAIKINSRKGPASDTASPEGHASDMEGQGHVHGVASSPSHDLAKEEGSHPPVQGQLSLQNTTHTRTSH
measurement-description: IL4I1 Enzymatic Assay (Amplex Red/HRP coupled H2O2 detection)
Assay type: biochemical
test-conditions: 240 min; four-hour pre-incubation with compound; 1 nM IL4I1, 1 mM each Phe/Tyr/Trp; ten-point titration; fluorescence readout; read-out: Potency EC50 (nM) (240 min)
metric: log10 EC50 (log10 of the value in nM)
// stored as log10 of EC50 expressed in nM

Can you look up the measured log10 EC50 of O=c1[nH]c2c(N3CCCC3)cccc2n1Cc1ccccc1 [Example 93] for me?
3.13

Item CCCS(=O)(=O)NCc1ccc(Cn2c(=O)[nH]c3ccc(F)cc32)cc1 [Example 95] has what recorded log10 EC50?
0.78

Consider the molecule shown here: COc1cc(Cn2c(=O)[nH]c3ccccc32)ccc1CNC(C)=O [Example 7] What is its recorded log10 EC50?
0.90

log10 EC50 for CNC(=O)c1ccc(Cn2c(=O)[nH]c3ccccc32)s1 [Example 47] ?
0.48

Report log10 EC50 for O=C1OCCN1Cc1ccc(Cn2c(=O)[nH]c3ccccc32)cc1 [Example 74] please.
0.85

So what's the measured log10 EC50 for this one? O=C1CC2(CC2)CN1Cc1ccc(Cn2c(=O)[nH]c3ccccc32)cc1 [Example 22]
0.90

Could you tell me which log10 EC50 is on file for C[C@@H]1NC(=O)O[C@H]1c1cccc(Cn2c(=O)[nH]c3ccccc32)c1 [Example 31] ?
1.18

Entry O=c1[nH]c2ccccc2n1Cc1ccc(Cc2nnco2)cc1 [Example 3] : reported log10 EC50 = ?
1.72

Quick one: log10 EC50 for O=C1CCCN1Cc1ncc(Cn2c(=O)[nH]c3ccccc32)cc1Cl [Example 25] ?
1.67
